target under test: Nrg2 (UniProt P38082)
Sequence: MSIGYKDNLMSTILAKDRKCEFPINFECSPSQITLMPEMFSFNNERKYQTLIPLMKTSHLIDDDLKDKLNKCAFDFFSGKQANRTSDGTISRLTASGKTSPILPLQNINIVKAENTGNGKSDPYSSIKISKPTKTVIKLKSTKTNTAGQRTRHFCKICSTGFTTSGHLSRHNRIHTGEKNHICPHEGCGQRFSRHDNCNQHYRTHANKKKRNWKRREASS
method: PBM E-score (8-mer binding enrichment) (E-score (-0.5 to 0.5)); higher = stronger / more preferred TF binding
measurement parameters: protein concentration: 100 nM; construct: GST-full length
In all, about 33,000 sequences were measured (“E-score (-0.5 to 0.5)”: median about -8e-05, highest 2% from about 0.23 on). Only a selection was taken, and the highest values are over-represented in it overall.
sequences and their reported PBM E-score
Give only the figure.

Below, each entry is followed by its recorded PBM E-score result.
In [3]: df
Out[3]:
   seq_string  readout_name  measured_result
0    CGCTTGAG   PBM E-score          -0.0135
1    ACAGAGCA   PBM E-score           0.0833
2    ACAACATA   PBM E-score            0.268
3    CCCAACTC   PBM E-score            0.256
4    CCCGCATA   PBM E-score            0.168

// recorded PBM E-score for AAACCCAA : 0.0986
